Quick reference: VDR binding property of the listed items.
Molecular target: Bovine thymus 1α,25-dihydroxyvitamin D3 receptor (VDR) (Bos taurus)
Sequence (Q28037 whole entry): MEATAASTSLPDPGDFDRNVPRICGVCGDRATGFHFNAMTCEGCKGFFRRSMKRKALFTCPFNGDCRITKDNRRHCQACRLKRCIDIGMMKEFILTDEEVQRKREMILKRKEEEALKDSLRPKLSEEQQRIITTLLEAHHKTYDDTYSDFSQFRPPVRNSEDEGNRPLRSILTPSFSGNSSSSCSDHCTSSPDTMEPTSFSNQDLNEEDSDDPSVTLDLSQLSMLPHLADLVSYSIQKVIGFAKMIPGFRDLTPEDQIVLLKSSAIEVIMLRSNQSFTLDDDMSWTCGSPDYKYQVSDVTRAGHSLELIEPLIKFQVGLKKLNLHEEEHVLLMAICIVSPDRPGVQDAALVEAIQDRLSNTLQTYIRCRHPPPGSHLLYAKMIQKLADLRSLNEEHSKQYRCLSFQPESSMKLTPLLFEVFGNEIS
Conditions: relative value, 1α,25-dihydroxyvitamin D3 taken as 100; X=(y/x)×100 from concentrations inhibiting 50% of [3H]-1α,25-dihydroxyvitamin D3 binding (0.1 nM) to VDR

{"MOLECULE": "C=C1/C(=C/C=C2\\CCCC3(C)C2CCC3[C@H](C)CCCC(C)(C)O)C[C@@H](O)[C@H](C)[C@@H]1O (stereo partly drawn)", "VALUE": 0.4}
{"MOLECULE": "C=C1/C(=C/C=C2\\CCCC3(C)C2CCC3[C@H](C)CCCC(C)(C)O)C[C@H](O)[C@H](C)[C@H]1O (stereo partly drawn)", "VALUE": "< 0.01"}

Input: # value lookup — system Bovine thymus 1α,25-dihydroxyvitamin D3 receptor (VDR) (Bos taurus), readout VDR binding property, item C=C1C(=CC=C2CCCC3(C)C2CCC3C(C)CCCC(C)(C)O)CC(O)C(C)C1O (stereo not drawn) [Example 4]
Output: < 0.01

Origin of the recorded values: patent US20050032754A1
